B1: TMEM106C (parent)
chain: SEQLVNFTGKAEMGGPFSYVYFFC

Variants of: B1
measurement_notes: protein stability index of a GFP-peptide fusion (GPS, HEK-293T) (PSI 1-6); higher = more stable;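 further: lentivirally expressed fusions sorted by FACS into six bins by GFP to DsRed ratio, PSI derived from sequencing read proportions per bin multiplied by bin number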
run_parameters: c terminus: a fixed tail appended
Let's look at some variants and their measured protein stability index.
Output spec: single numeric token, no unit.

S18Q: 2.45
V20E: 2.13

// moving on: another record for protein stability index
Would you kindly share the measured protein stability index for Y21C ?
2.42
